Target: pooled human IgG (human IgG1, 2, 3 and 4)
metric: Enzyme Activity Endpoint Assay (purified): Fab′2 (ng/µL)
Lab book: enter the figure in ng/µL, no units written.

get_value(item= PRT-642 (protein) MQITSVWTKGVTPLTPEQFRYNNEDVIHAPYLAHQGWYDITKTFNRGDNLLCGAATAGNMLHWWFDQNKTEIEAYLSKHPEKQKIIFNNQELFDLKAAIDTKDSQTNSQLFNYFRDKAFPNLSARQGGVMPDLVLDMFINGYYLNVFKTQSTDVNRPYQDKDKRGGIFDAVFTRGDQTTLLTARHDLKNKGLNDISTIIKQELTEGRALALSHTYANVSISHVINLWGADFNAEGNLEAIYVTDSDADEKIGMKKYFVGINAHGHVAISAKKIEGENIGAQVLGLFTLSSGKDIWQKLSLEHHHHHH , readout=Enzyme Activity Endpoint Assay (purified): Fab′2) returns 175

Others:
get_value(item= PRT-389 (protein) MVTSVWTKGVTPPTNFTYGEDVLHAPYVANQGWYDITKTFNGKDDLLCGAATAGNMLHWWFDQNKEQIENYLKKHPEKQKINFKGEQMFDVKEAIDTKDSQLDSKLFEYFKEKAFPYLSTKHLGVFPDHVIDMFINGYRLSLTNHGPTPVKRGSKDPRGGIFDAVFTRGDQSKLLTNRHDFKEKTLKEISDLIKQELTEGKALGISHTYANVRINHVINLWGADFDAEGNLEAIYVTDSDSNASIGMKKYFVGVNSNGKVAISAKEIEEDNIGAQVLGLFTLSTGQDIWNQTN , readout=Enzyme Activity Endpoint Assay (purified): Fab′2) returns 479
